assay-system: human KCNK13 (Homo sapiens)
Sequence (Q9HB14 whole entry): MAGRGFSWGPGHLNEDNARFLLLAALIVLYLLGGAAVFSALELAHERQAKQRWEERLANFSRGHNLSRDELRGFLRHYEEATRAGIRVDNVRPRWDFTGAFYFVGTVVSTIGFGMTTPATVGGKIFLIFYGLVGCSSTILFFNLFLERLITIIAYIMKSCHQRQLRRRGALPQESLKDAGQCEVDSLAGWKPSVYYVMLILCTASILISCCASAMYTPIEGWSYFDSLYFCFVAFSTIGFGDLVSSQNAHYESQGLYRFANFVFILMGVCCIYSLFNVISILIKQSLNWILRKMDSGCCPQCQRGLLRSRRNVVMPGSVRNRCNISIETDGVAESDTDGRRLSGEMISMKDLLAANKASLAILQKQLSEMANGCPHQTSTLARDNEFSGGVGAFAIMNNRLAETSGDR
measurement-description: KCNK13 antagonist activity, thallium flux FLIPR assay in HEK 293 cells stably expressing human KCNK13
condition-context: HEK 293 cells stably expressing human KCNK13, Tl+ sensitive dye, compound 15 min before thallium sulfate, ten point curves; read-out: hKCNK13 IC50
pIC50: −log10 of the molar value.

| molecule | assay-system | pIC50 |
| --- | --- | --- |
| COc1ncc(F)cc1C(=O)N(C)C1COc2cc(F)ccc21 (centres unmarked) | human KCNK13 (Homo sapiens) | ≥ 6.00 |
| COc1ncc(F)cc1C(=O)N(C)Cc1c(F)cc(F)cc1C#N | human KCNK13 (Homo sapiens) | ≥ 6.00 |
| COc1ncc(F)cc1C(=O)N1CCCCC1c1cccc(F)c1 (centres unmarked) | human KCNK13 (Homo sapiens) | ≥ 6.00 |
| COc1ncc(F)cc1C(=O)N(C)C1CCc2ccccc21 (single isomer, unassigned) [Example 16] | human KCNK13 (Homo sapiens) | ≥ 6.30 |
| COc1ncc(Cl)cc1C(=O)N(C)Cc1cccc(F)c1 | human KCNK13 (Homo sapiens) | ≥ 7.30 |
| COc1ncc(F)cc1C(=O)N(C)C1(c2cccc(F)c2)CC1 | human KCNK13 (Homo sapiens) | ≥ 6.30 |
| COc1ncc(Cl)cc1C(=O)N(C)Cc1ccc(F)cc1C(F)(F)F | human KCNK13 (Homo sapiens) | ≥ 6.00 |
| COc1ncc(F)cc1C(=O)N(C)C(C)c1cc(F)ccc1C#N (single isomer, unassigned) [Example 63] | human KCNK13 (Homo sapiens) | ≥ 6.00 |
| COc1ncc(F)cc1C(=O)N(C)C1CCc2ccc(F)cc21 (single isomer, unassigned) [Example 10] | human KCNK13 (Homo sapiens) | ≥ 6.30 |
| COc1ncc(F)cc1C(=O)N(C)Cc1cccc(F)c1F | human KCNK13 (Homo sapiens) | ≥ 6.30 |
| COc1ncc(Cl)cc1C(=O)N(C)C1CCOc2ccccc21 (single isomer, unassigned) [Example 18] | human KCNK13 (Homo sapiens) | ≥ 6.30 |
| CN(Cc1cccc(C(F)(F)F)c1)C(=O)c1cc(Cl)cnc1OC(F)F | human KCNK13 (Homo sapiens) | ≥ 6.30 |
| COc1ncc(F)cc1C(=O)N(C)Cc1cccc(F)c1 | human KCNK13 (Homo sapiens) | ≥ 6.70 |
| COc1ncc(Cl)cc1C(=O)N(C)C(C)c1ccc(F)cc1C#N (single isomer, unassigned) [Example 67] | human KCNK13 (Homo sapiens) | ≥ 6.30 |
| COc1ncc(Cl)cc1C(=O)N(C)Cc1cccc(F)c1F | human KCNK13 (Homo sapiens) | ≥ 6.70 |
| Cc1cc(F)cc(CN(C)C(=O)c2cc(Cl)cnc2OC(F)F)c1 | human KCNK13 (Homo sapiens) | ≥ 6.70 |
| COc1ncc(Cl)cc1C(=O)N(C)C1CCc2ccc(C#N)cc21 (centres unmarked) | human KCNK13 (Homo sapiens) | ≥ 6.00 |
| COc1ncc(F)cc1C(=O)N(C)C(C)c1cccc(F)c1 (single isomer, unassigned) [Example 8] | human KCNK13 (Homo sapiens) | ≥ 6.70 |
| COc1ncc(F)cc1C(=O)N(C)C1CCOc2c(F)cccc21 (single isomer, unassigned) [Example 31] | human KCNK13 (Homo sapiens) | ≥ 6.00 |
| CN(Cc1cccc(C#N)c1)S(=O)(=O)c1cc(F)cnc1OC(F)F | human KCNK13 (Homo sapiens) | ≥ 6.30 |
| CN(Cc1cccc(F)c1)C(=O)c1cc(C2CCC2)cnc1OC(F)F | human KCNK13 (Homo sapiens) | ≥ 6.00 |
| COc1nc(C)ccc1C(=O)N(C)Cc1ccc(F)cc1F | human KCNK13 (Homo sapiens) | ≥ 6.00 |
| CC(c1ccccc1F)N(C)C(=O)c1cc(F)cnc1OC(F)F (single isomer, unassigned) [Example 71] | human KCNK13 (Homo sapiens) | ≥ 7.00 |
| COc1ncc(Cl)cc1C(=O)N(C)C1CCc2ccccc21 (single isomer, unassigned) [Example 23] | human KCNK13 (Homo sapiens) | ≥ 6.30 |
| N#Cc1cc(F)ccc1S(=O)(=O)N1CCOc2ccc(F)cc2C1 | human KCNK13 (Homo sapiens) | ≥ 6.70 |
| CCN(Cc1ccccc1F)C(=O)c1cc(Cl)cnc1OC | human KCNK13 (Homo sapiens) | ≥ 6.30 |
| Cc1cccc(CN(C)C(=O)c2cc(Cl)cnc2OC(F)F)c1 | human KCNK13 (Homo sapiens) | ≥ 7.00 |
| COc1ncc(C)cc1C(=O)N(C)Cc1ccc(F)cc1F | human KCNK13 (Homo sapiens) | ≥ 6.70 |
| O=S(=O)(c1cc(F)cnc1OC(F)F)N1CCc2cc(F)cc(F)c2C1 | human KCNK13 (Homo sapiens) | ≥ 6.30 |
| COc1ncc(Cl)cc1C(=O)N(C)Cc1cc(F)cc(F)c1 | human KCNK13 (Homo sapiens) | ≥ 6.70 |
| COc1ncc(Cl)cc1C(=O)N(C)C1CCOc2c(F)cccc21 (single isomer, unassigned) [Example 28] | human KCNK13 (Homo sapiens) | ≥ 6.30 |
| COc1ncc(C)cc1S(=O)(=O)N1CCOc2ccc(F)cc2C1 | human KCNK13 (Homo sapiens) | ≥ 6.30 |
